Source listed as ChEMBL document CHEMBL1833959.

assay: Ratio of itraconazole IC50 to compound IC50 for antiproliferative activity against mouse Ptch+/- p53-/- medulloblastoma cells isolated from allografts in nude Harlan mouse after 96 hrs; assay type: functional, Medulloblastoma cell
result type: Ratio IC50
API note: the answer field is a bare number with no unit suffix.

// below: answered compounds
{"columns": ["structure smiles string", "Ratio IC50"],
 "data": [
  ["CCn1ncn(-c2ccc(N3CCN(c4ccc(OC[C@@H]5CO[C@@](Cn6cncn6)(c6ccc(Cl)cc6Cl)O5)cc4)CC3)cc2)c1=O", 1.62],
  ["CC[C@H](C)n1ncn(-c2ccc(N3CCN(c4ccc(OC[C@@H]5CO[C@](Cn6cncn6)(c6ccc(Cl)cc6Cl)O5)cc4)CC3)cc2)c1=O", 1.5],
  ["CC[C@@H](C)n1ncn(-c2ccc(N3CCN(c4ccc(OC[C@H]5CO[C@](Cn6cncn6)(c6ccc(Cl)cc6Cl)O5)cc4)CC3)cc2)c1=O", 1.7]
]}

q: Sample CC/C=C/CCn1ncn(-c2ccc(N3CCN(c4ccc(OC[C@@H]5CO[C@@](Cn6cncn6)(c6ccc(Cl)cc6Cl)O5)cc4)CC3)cc2)c1=O — what was its Ratio IC50?
a: 0.63

q: Sample N#CCCCCCn1ncn(-c2ccc(N3CCN(c4ccc(OC[C@@H]5CO[C@@](Cn6cncn6)(c6ccc(Cl)cc6Cl)O5)cc4)CC3)cc2)c1=O — what was its Ratio IC50?
a: 0.84

q: Sample O=c1n(-c2ccc(N3CCN(c4ccc(OC[C@@H]5CO[C@@](Cn6cncn6)(c6ccc(Cl)cc6Cl)O5)cc4)CC3)cc2)cnn1CC1CCCC1 — what was its Ratio IC50?
a: 0.5

q: Sample O=c1n(-c2ccc(N3CCN(c4ccc(OC[C@@H]5CO[C@@](Cn6cncn6)(c6ccc(Cl)cc6Cl)O5)cc4)CC3)cc2)cnn1CCCCCCc1ccccc1 — what was its Ratio IC50?
a: 0.69

q: Sample CC[C@H](C)n1ncn(-c2ccc(N3CCN(c4ccc(OC[C@H]5CO[C@@](Cn6cncn6)(c6ccc(Cl)cc6Cl)O5)cc4)CC3)cc2)c1=O — what was its Ratio IC50?
a: 2.1

q: Sample O=c1[nH]ncn1-c1ccc(N2CCN(c3ccc(OC[C@@H]4CO[C@@](Cn5cncn5)(c5ccc(Cl)cc5Cl)O4)cc3)CC2)cc1 — what was its Ratio IC50?
a: 0.89

###

target: UniProt:P35968; experiment: Inhibition of VEGFR2 glycosylation in human HUVEC cells at 2 uM after 24 hrs by Western blot analysis; type: cell-based
Sequence (P35968 whole entry): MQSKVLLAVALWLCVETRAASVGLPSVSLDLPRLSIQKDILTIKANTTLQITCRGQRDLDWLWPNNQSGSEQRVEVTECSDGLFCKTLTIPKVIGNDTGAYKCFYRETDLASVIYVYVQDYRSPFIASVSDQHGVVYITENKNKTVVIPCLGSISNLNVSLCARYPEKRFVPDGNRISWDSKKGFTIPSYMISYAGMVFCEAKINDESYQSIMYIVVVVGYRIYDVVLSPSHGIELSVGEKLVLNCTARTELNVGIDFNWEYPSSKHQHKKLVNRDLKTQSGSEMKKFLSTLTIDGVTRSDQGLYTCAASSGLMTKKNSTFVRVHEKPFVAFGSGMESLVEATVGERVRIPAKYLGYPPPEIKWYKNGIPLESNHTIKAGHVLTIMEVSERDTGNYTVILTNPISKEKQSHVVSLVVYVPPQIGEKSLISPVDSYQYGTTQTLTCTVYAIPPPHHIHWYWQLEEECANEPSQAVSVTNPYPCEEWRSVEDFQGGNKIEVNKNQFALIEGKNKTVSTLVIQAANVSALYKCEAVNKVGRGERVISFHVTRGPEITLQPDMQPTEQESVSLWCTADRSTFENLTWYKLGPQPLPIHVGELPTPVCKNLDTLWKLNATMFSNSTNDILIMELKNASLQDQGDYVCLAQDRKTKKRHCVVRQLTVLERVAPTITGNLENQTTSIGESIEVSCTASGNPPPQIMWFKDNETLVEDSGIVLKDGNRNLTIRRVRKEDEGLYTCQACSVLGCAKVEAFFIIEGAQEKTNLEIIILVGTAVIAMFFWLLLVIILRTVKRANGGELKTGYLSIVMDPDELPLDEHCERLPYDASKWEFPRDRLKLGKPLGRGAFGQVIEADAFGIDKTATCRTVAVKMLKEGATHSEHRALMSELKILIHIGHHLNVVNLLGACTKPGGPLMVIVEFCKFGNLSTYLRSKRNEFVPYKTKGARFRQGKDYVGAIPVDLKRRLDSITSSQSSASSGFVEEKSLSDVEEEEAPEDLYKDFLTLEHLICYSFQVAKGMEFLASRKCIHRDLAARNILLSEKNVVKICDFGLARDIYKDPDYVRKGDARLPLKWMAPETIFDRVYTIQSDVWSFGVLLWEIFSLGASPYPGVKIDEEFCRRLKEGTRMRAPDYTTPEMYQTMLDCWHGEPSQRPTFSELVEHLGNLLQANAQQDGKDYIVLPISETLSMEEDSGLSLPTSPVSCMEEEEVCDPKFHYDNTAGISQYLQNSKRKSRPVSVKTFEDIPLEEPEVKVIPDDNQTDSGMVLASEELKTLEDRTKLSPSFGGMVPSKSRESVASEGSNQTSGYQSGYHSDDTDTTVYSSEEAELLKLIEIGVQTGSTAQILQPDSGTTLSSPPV
Active and inactive are the calls of the source. The rule behind the calls is not given here.
result type: inhibition

// below: answered compounds
{"columns": ["structure smiles string", "tested system", "inhibition"],
 "data": [
  ["Cn1ncn(-c2ccc(N3CCN(c4ccc(OC[C@@H]5CO[C@@](Cn6cncn6)(c6ccc(Cl)cc6Cl)O5)cc4)CC3)cc2)c1=O", "UniProt:P35968", "inactive"],
  ["[N-]=[N+]=NCCCCCCn1ncn(-c2ccc(N3CCN(c4ccc(OC[C@@H]5CO[C@@](Cn6cncn6)(c6ccc(Cl)cc6Cl)O5)cc4)CC3)cc2)c1=O", "UniProt:P35968", "Active"],
  ["CC[C@@H](C)n1ncn(-c2ccc(N3CCN(c4ccc(OC[C@@H]5CO[C@@](Cn6cncn6)(c6ccc(Cl)cc6Cl)O5)cc4)CC3)cc2)c1=O", "UniProt:P35968", "Active"],
  ["O=c1n(-c2ccc(N3CCN(c4ccc(OC[C@@H]5CO[C@@](Cn6cncn6)(c6ccc(Cl)cc6Cl)O5)cc4)CC3)cc2)cnn1CCCCCCc1ccccc1", "UniProt:P35968", "inactive"],
  ["O=c1n(-c2ccc(N3CCN(c4ccc(OC[C@@H]5CO[C@@](Cn6cncn6)(c6ccc(Cl)cc6Cl)O5)cc4)CC3)cc2)cnn1C1CCCCC1", "UniProt:P35968", "Active"]
]}

q: Sample CCCCCn1ncn(-c2ccc(N3CCN(c4ccc(OC[C@@H]5CO[C@@](Cn6cncn6)(c6ccc(Cl)cc6Cl)O5)cc4)CC3)cc2)c1=O — what was its inhibition?
a: inactive
